Biological target: UniProt O35433
Sequence (O35433 whole entry): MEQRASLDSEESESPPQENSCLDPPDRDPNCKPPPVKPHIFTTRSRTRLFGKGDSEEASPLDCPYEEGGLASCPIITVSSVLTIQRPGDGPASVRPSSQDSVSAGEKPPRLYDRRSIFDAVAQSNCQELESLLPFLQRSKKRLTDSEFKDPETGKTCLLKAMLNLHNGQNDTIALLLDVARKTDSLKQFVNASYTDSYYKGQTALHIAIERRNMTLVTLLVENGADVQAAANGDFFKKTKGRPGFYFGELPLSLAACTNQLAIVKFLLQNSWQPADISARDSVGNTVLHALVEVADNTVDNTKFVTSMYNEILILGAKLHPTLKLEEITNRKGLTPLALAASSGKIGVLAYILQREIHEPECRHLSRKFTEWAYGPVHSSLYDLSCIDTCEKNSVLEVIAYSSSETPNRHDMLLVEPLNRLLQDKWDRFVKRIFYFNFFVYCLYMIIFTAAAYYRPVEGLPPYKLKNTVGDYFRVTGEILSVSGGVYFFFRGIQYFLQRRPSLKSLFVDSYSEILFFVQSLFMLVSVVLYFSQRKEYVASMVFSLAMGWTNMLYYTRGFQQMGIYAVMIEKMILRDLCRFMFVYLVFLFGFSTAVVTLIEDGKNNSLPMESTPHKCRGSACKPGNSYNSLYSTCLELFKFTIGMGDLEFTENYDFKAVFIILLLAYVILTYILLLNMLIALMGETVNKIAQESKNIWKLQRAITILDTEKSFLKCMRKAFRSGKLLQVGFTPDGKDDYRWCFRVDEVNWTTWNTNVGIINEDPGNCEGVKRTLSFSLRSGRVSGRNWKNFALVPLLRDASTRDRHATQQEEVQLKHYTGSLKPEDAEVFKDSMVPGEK
Assay: Antagonist activity at rat TRPV1 expressed in human HEK293 cells assessed as inhibition of capsaicin-induced influx by measuring intracellular calcium accumulation by fura-2 dye based fluorimetric assay
RECORDED METRIC: IC50 (nM)

{"columns": ["CHEMICAL STRING", "RECORDED METRIC", "TEST VALUE"],
 "data": [
  ["CN(C(=O)/C=C/c1ccc(Cl)cc1)c1cccc(OCCCF)c1", "IC50", 1100],
  ["CN(C(=O)/C=C/c1ccc(Cl)cc1)c1cccc(OCCF)c1", "IC50", 4200]
]}

A = COc1cccc(NC(=O)/C=C/c2ccc(Cl)cc2)c1
B = COc1cccc(N(C)C(=O)/C=C/c2ccc(Cl)cc2)c1
// query Returns: the argument ( A or B ) having the larger IC50. Identify your pick by its label.
// result A

Just for reference, ChEMBL document CHEMBL5108088 is where these values come from.
